// reported pIC50 for each item listed
# study target: UniProt:Q9H7B4
# experimental protocol: SMYD3 biochemical assay (SPA, 3H-SAM methylation of MEKK2 protein substrate)
# conditions: read-out: SMYD3 Biochem IC50*
# From the text: S-adenosylmethionine (SAM), S-adenosylhomocysteine (SAH), Tris, Tween20, dimethylsulfoxide (DMSO), bovine skin gelatin (BSG), and Tris(2-carboxyethyl)phosphine hydrochloride solution (TCEP) were purchased from Sigma-Aldrich at the highest level of purity possible. ^3H-SAM was purchase from American Radiolabeled Chemicals with a specific activity of 80 Ci/mmol. 384-well opaque white OptiPlates and SPA beads (Perkin Elmer, catalog # RPNQ0013) were purchased from PerkinElmer. […]
pIC50 (log units): -log10 of the concentration in mol/L.

molecule	measured parameter	recorded value
CC[C@H]1C[C@@H](NC(=O)c2cc(C3CC3)on2)CCN1S(=O)(=O)CC1CCN(C)CC1	pIC50	7.24
CN1CC2CC(C1)N2S(=O)(=O)N1[C@@H]2CC[C@H]1C[C@@H](NC(=O)c1cc(C3CC3)on1)C2	pIC50	7.37
O=C(N[C@H]1C[C@H]2CC[C@@H](C1)N2S(=O)(=O)N1CCC(NCc2ccc(C(F)(F)F)cc2)CC1)c1cc(C2CC2)on1	pIC50	7.87
O=C(N[C@H]1C[C@H]2CC[C@@H](C1)N2S(=O)(=O)c1ccc(CNCCO)cc1)c1cc(C2CC2)on1	pIC50	7.29
C[C@H]1C[C@@H](NC(=O)c2cc(C3CC3)on2)CCN1S(=O)(=O)CC[C@H]1CCN(C)C1	pIC50	8.56

Request: Provide only the value of recorded pIC50 for O=C(N[C@H]1C[C@H]2CC[C@@H](C1)N2S(=O)(=O)N1CCNCC1)c1cc(C2CC2)on1
Result: 8.15

Request: Provide only the value of recorded pIC50 for O=C(N[C@H]1C[C@H]2CC[C@@H](C1)N2S(=O)(=O)N1CCC(NCCCN2CCCC2)CC1)c1cc(C2CC2)on1
Result: 8.06

Request: Provide only the value of recorded pIC50 for C[C@H]1C[C@@H](NC(=O)c2cc(C3CC3)on2)CCN1S(=O)(=O)N1CCC(NCCN2CCOCC2)CC1
Result: 7.73

Request: Provide only the value of recorded pIC50 for CC(C)NC1CCN(S(=O)(=O)N2[C@@H]3CC[C@H]2C[C@@H](NC(=O)c2cc(C4CC4)on2)C3)CC1
Result: 7.44

Request: Provide only the value of recorded pIC50 for C[C@H]1C[C@@H](NC(=O)c2cc(C3CC3)on2)CCN1S(=O)(=O)[C@H]1CC[C@H](N)CC1
Result: 8.99

Request: Provide only the value of recorded pIC50 for O=C(N[C@H]1C[C@H]2CC[C@@H](C1)N2S(=O)(=O)N1CCC(NCCN2CCCC2)CC1)c1cc(C2CC2)on1
Result: 7.55

Request: Provide only the value of recorded pIC50 for CN(CCCO)C1CCN(S(=O)(=O)N2[C@@H]3CC[C@H]2C[C@@H](NC(=O)c2cc(C4CC4)on2)C3)CC1
Result: 8.34

Request: Provide only the value of recorded pIC50 for O=C(N[C@H]1CCN(S(=O)(=O)N2CCNCC2)[C@@H](Cc2ccccc2)C1)c1cc(C2CC2)on1
Result: 7.06

Request: Provide only the value of recorded pIC50 for C[C@H]1C[C@@H](NC(=O)c2cc(C3CC3)on2)CCN1S(=O)(=O)C1CCC(CN)C1 (stereo partly shown)
Result: 8.91

---

# study target: UniProt:Q9H7B4
# experimental protocol: SMYD3 cell assay (Trimethyl-MEKK2 In-Cell Western in 293T/17 cells)
# Type: cell-based
# conditions: read-out: SMYD3 Cell IC50*
# Description: Trimethyl-MEKK2-in-Cell Western Assay MEM/Glutamax medium, Optimem Reduced Serum medium, penicillin-streptomycin, 0.05% trypsin and 1×D-PBS were purchased from Life Technologies, Grand Island, N.Y., USA. […] Plasmids were prepared for delivery to cells by first mixing 1350 μL Opti-MEM with Fugene (81 μL) in a sterile Eppendorf and incubated for five minutes at room temperature (RT). […] Room temperature MEM+10% Tet system FBS was added and cells were mixed gently, and counted using the Vi-cell. […]
Exam item: assign Condition met to entries whose IC50 is below 80 nM and Condition not met to entries at or above 80 nM. Note that a value of exactly 80 nM receives Condition not met.

molecule	class assignment
C[C@H]1C[C@@H](NC(=O)c2cc(C3CC3)on2)CCN1S(=O)(=O)CC1CCC(N(C)C)C1 (stereo partly shown) [compound 823]	Condition met

Request: Lab note: IC50 threshold 80 nM. Does this molecule come in strictly under it? C[C@H]1C[C@@H](NC(=O)c2cc(C3CC3)on2)CCN1S(=O)(=O)N1CCC(NCCO)CC1 [compound 808]
Result: Condition met

Request: Lab note: IC50 threshold 80 nM. Does this molecule come in strictly under it? COCCN[C@H]1CC[C@H](S(=O)(=O)N2[C@@H]3CC[C@H]2C[C@@H](NC(=O)c2cc(C4CC4)on2)C3)CC1 [compound 825]
Result: Condition met

Request: Lab note: IC50 threshold 80 nM. Does this molecule come in strictly under it? CC1CNCCN1S(=O)(=O)N1[C@@H]2CC[C@H]1C[C@@H](NC(=O)c1cc(C3CC3)on1)C2 (stereo partly shown) [compound 901]
Result: Condition not met

Request: Lab note: IC50 threshold 80 nM. Does this molecule come in strictly under it? C[C@H](NC1CCN(S(=O)(=O)N2[C@@H]3CC[C@H]2C[C@@H](NC(=O)c2cc(C4CC4)on2)C3)CC1)c1ccc(F)cc1 [compound 943]
Result: Condition not met

Request: Lab note: IC50 threshold 80 nM. Does this molecule come in strictly under it? O=C(N[C@H]1C[C@H]2CC[C@@H](C1)N2S(=O)(=O)N1CCC(N2CCCC2)CC1)c1cc(C2CC2)on1 [compound 906]
Result: Condition not met

---

// reported log10 of IC50 for each item listed
# study target: SMYD3 (Homo sapiens (Human))
# Sequence (Q9H7B4 whole entry): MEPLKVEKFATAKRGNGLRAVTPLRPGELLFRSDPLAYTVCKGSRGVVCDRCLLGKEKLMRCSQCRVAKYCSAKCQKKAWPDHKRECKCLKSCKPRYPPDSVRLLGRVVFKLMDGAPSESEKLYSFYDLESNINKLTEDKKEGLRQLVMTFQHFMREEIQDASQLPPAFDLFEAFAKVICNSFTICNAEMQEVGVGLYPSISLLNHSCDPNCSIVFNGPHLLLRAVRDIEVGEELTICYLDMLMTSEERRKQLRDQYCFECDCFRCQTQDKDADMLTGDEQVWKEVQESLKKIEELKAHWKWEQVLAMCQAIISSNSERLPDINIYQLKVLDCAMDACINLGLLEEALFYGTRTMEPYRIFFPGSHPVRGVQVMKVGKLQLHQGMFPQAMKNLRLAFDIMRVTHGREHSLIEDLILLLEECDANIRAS
# experimental protocol: SMYD3 biochemical assay (SPA, 3H-SAM methylation of MEKK2 protein substrate)
# conditions: read-out: SMYD3 Biochem IC50 (μM)*
Hi team, quick reminder: these entries are log10 of IC50 (µM).

// below: answered compounds
compound	study target	recorded value
CC(C)CS(=O)(=O)N1CC[C@@H](NC(=O)c2cc(C3CC3)on2)C[C@H]1C [compound 250]	SMYD3 (Homo sapiens (Human))	0.98
N[C@H]1CC[C@H](C(=O)N2CC[C@H](NC(=O)c3cc(C4CC4)on3)[C@H](CO)C2)CC1 [compound 422]	SMYD3 (Homo sapiens (Human))	0.29
NCCC(=O)NC[C@H](Cc1ccc(O)c(I)c1)C(=O)N1CCC(NC(=O)c2cc(C3CC3)on2)CC1 [compound 35]	SMYD3 (Homo sapiens (Human))	-0.93
C[C@@H]1CC(NC(=O)c2cc(C3CC3)on2)CCN1C(=O)CCN1CCCC1 (stereo partly shown) [compound 70]	SMYD3 (Homo sapiens (Human))	0.89
CC(C)c1cc(C[C@H](CN)C(=O)N2CCC(NC(=O)c3cc(C4CC4)on3)CC2)ccc1O [compound 112]	SMYD3 (Homo sapiens (Human))	0.04
CC1C(NC(=O)c2cc(C3CC3)on2)CCN(C(=O)[C@H]2CC[C@H](N)CC2)C1C (stereo partly shown) [compound 203]	SMYD3 (Homo sapiens (Human))	-0.42
C[C@@H]1C[C@H](NC(=O)c2cc(C3CC3)on2)CCN1S(=O)(=O)CCC(F)(F)F [compound 258]	SMYD3 (Homo sapiens (Human))	0.92
O=C(N[C@H]1C[C@H]2CC[C@@H](C1)N2S(=O)(=O)c1ccccc1)c1cc(C2CC2)on1 [compound 400]	SMYD3 (Homo sapiens (Human))	0.62

Request: Provide only the value of recorded log10 of IC50 for N[C@@H](Cc1ccc(O)cc1)CN1CCC(NC(=O)c2cc(C3CC3)on2)CC1 [compound 14]
Result: 0.66

Request: Provide only the value of recorded log10 of IC50 for CC(=O)Nc1ccc(S(=O)(=O)N2CC[C@H](NC(=O)c3cc(C4CC4)on3)C[C@@H]2C)cc1 [compound 378]
Result: -0.24

---

# study target: SMYD3 (Homo sapiens (Human))
# experimental protocol: SMYD3 cell assay (Trimethyl-MEKK2 In-Cell Western in 293T/17 cells)
# Assay type: cell-based
# conditions: Table 2A; read-out: SMYD3 Cell IC50
pIC50: −log10 of the molar value.
pIC50 of 7 or higher: true. Under 7: false.

CNCCN(C)CCCS(=O)(=O)N1[C@@H]2CC[C@H]1C[C@@H](NC(=O)c1cc(C3CC3)on1)C2 false
NCCNCCCS(=O)(=O)N1[C@@H]2CC[C@H]1C[C@@H](NC(=O)c1cc(C3CC3)on1)C2 false
CN1CCC(N(C)S(=O)(=O)N2[C@@H]3CC[C@H]2C[C@@H](NC(=O)c2cc(C4CC4)on2)C3)CC1 false
C[C@H]1CN(S(=O)(=O)CC2CCN(CCCO)CC2)CC[C@H]1NC(=O)c1cc(C2CC2)on1 false
O=C(N[C@H]1C[C@H]2CC[C@@H](C1)N2S(=O)(=O)CC1CCN(CCO)CC1)c1cc(C2CC2)on1 true
C[C@H]1C[C@@H](NC(=O)c2cc(C3CC3)on2)CCN1S(=O)(=O)CC1CCN(CCO)CC1 true

Now examine the next entry.
Request: Does the reported pIC50 for O=C(N[C@H]1C[C@H]2CC[C@@H](C1)N2S(=O)(=O)C[C@@H]1CCCNC1)c1cc(C2CC2)on1 fall at or above the 7 mark?
Result: true
